Values compiled from patent US20210032351A1.

- system: T1, human EGFRvIII-hFc protein (human, UniProt P00533 25-645)
- T1 construct: extracellular domain; made in HEK293 cells, purified on protein A; also called immunogen A; hFc-tagged EGFRvIII protein; not shown: human IgG Fc fragment (hFc) of the pCpC vector
- assay-text: ELISA, coated EGFRvIII-hFc, antibody 100 nM
quantity-kind: OD450 nm

INSERT INTO measurements (binder, measured_result) VALUES
  ('Murine anti-56F10 (antibody, V domains shown, murine hybridoma antibody; also called 56F10G2) VH: EVQLQQSGAELVKPGASVKLSCTASGFNIKDFYMHWVKQRTEQGLEWIGRIDPEDGETKYAPKFQGKATITADTSSNTAYLQLSSLTSEDTAVYYCGCRTGGFAYWGQGTLVTVSA VL: QIVLTQSPAIMSASPGEKVTMTCSASSSVSYLYWYQQKPGSSPSLLIYDTSNLASGVPVRFSGSGSGTSYSLTISRMEAEDAATYYCQQWSRNPWTFGGGTKLEIK', 3.61),
  ('Murine anti-64B11 (antibody, V domains shown, murine hybridoma antibody; also called 64B11F2) VH: EVQLQQSGAELVKPGASVKLSCTASGFNIKDYYMHWVKQRTEQGLEWIGRIDPEDGETKYAPKFQGKATITADTSSNTAYLQLSNLPSEDTAVYYCGCRTGGFAYWGQGTLVTVSA VL: DILMTQSPSSMSVSLGDTVSITCHASQGINSNIGWLQQKPGKSFKALIYHGTNLEDGVPSRFSGSGSGADYSLTISSLESEDFADYYCVQYAQFPFTFGSGTELEIK', 3.64);
